B1: LINE1-full (parent)
chain: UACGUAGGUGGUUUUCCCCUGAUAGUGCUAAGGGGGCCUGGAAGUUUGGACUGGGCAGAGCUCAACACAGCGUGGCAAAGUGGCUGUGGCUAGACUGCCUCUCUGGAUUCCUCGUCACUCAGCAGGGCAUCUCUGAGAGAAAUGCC

variants of: B1; assay: self-cleavage, relative activity (ratio to wild type); higher = more cleavage; in vitro, sequencing; the parent is a self-cleaving ribozyme
METRIC NAME: self-cleavage
The reply should be a number, written without any unit.

A selection of reference data follows.
INSERT INTO assay_data (changes, readout_value) VALUES
  ('A43G A67G', 0.46),
  ('A30U A140G', 1.76),
  ('G88U U104C', 0.05),
  ('U62C A121U', 0.04),
  ('G11U', 1.56),
  ('A59G U73C', 0.07);

**Query** Determine from records and report self-cleavage for A50G C95A
**Result** 0.05

**Query** Determine from records and report self-cleavage for A64U U81A
**Result** 0.85

**Query** Determine from records and report self-cleavage for C3U U47A
**Result** 0.67

**Query** Determine from records and report self-cleavage for A31C G54A
**Result** 1.02

**Query** Determine from records and report self-cleavage for A57U U91C
**Result** 0.04
